Where do the numbers come from? From PubChem BioAssay (NCI).

Test system: HL-60(TB) leukemia
Assay: NCI tumour cell line growth inhibition, 48 h
Overview of recorded TGI for various compounds

Here's what some known entries look like.
- N/N=C1/CCCc2nonc21: > 100 µM
- CNC(=O)CCCN(C)C(=O)CCCCC(=O)N(C)C: > 100 µM
- CC(C)(C)c1ccc(C(O)c2ccc(C(C)(C)C)cc2)cc1: 35.6 µM
- CCOC(=O)CCC(NC(=O)c1ccc(OCc2nc3ccccc3n3cccc23)cc1)C(=O)OCC (stereo unspecified): > 100 µM
- CC(=O)N=c1ccc2nc3c(cc(N)c4ccccc43)oc-2c1: 6.8 µM

Kindly consider the entry below.
State the recorded TGI for this entry: CN(C1=NCCO1)c1cccc2c1CCCC2
> 10 µM

* * *

Tested on: ACHN renal
Assay: NCI tumour cell line growth inhibition, 48 h
Overview of recorded TGI for various compounds
API: value field is a number in µM; no unit string.

* C=C(C)[C@@H]1CC[C@]2(C)[C@H](CC[C@@H]3[C@H]4[C@H]5OC[C@@]4(CCC5(C)C)CC[C@]32C)[C@@]1(C)CCCN | 3.23
* CC(CO)C1=CC(C#CCOCc2ccccc2)N(C(=O)Oc2ccccc2)c2ccccc21 (configuration not stated) | 36.3

State the recorded TGI for this entry: CN(C)CCNC(=O)c1cccc2[nH]c(-c3ccccc3)nc12
33.3

Same for CN(C1=NCCO1)c1cccc2c1CCCC2
8.09

Same for CC1=C(C(=O)NCc2ccccc2)C(c2ccccc2[N+](=O)[O-])C(C(=O)NCc2ccccc2)=C(C)N1
27.4

Same for CN(CCCCN(C)CCc1ccc(Cl)c(Cl)c1)CCCCN1CCCC1
3.64

Same for CC1=C(C(=O)Nc2ccc(Cl)c(Cl)c2)C(c2ccco2)C(C(=O)Nc2ccc(Cl)c(Cl)c2)=C(C)N1
18.2

Same for Cc1ccc(S(=O)(=O)N2CCc3ccc(O)c4c3C2Cc2cc(Cl)ccc2-4)cc1 (configuration not stated)
23.5

Same for COc1ccc2nc3ccccc3c(NCCCCCCN(C)CCCl)c2c1
2.36

* * *

System: NCI-H460 lung
Assay: NCI tumour cell line growth inhibition, 48 h
Value kind: TGI

Here's what some known entries look like.
• COC(=O)CCn1cnc2c(SC)ncnc21 = > 100 µM
• CC(C)=CC(=O)Cc1nc2cc(C)c(C)cc2[nH]c1=O = > 100 µM
• CCOP(=O)(C=C=C(C)C)OCC = > 100 µM
• COc1cc2nc(Nc3cccc(F)c3)nc(Nc3cc(C)[nH]n3)c2cc1OC = 3.74 µM
• COc1ccc(C(c2c(O)c3ccccc3n(C)c2=O)c2c(O)c3ccccc3n(C)c2=O)cc1 = > 100 µM
• COC(=O)CCC/C=C\C[C@H]1C=CC(=O)/C1=C/C[C@@H](O)C/C=C\CC(F)(F)F = 10.6 µM
• N#Cc1ccnc(N2C(=O)CC[C@H]2C(=O)N(c2cncc(F)c2)[C@H](C(=O)NC2CC(F)(F)C2)c2ccccc2Cl)c1 = > 100 µM
• COc1ccccc1Cn1nc(OC)c2cc([N+](=O)[O-])ccc21 = > 100 µM

State the recorded TGI for this entry: NCCCN1CCN(CC(=O)O)CCN(CCCN)CCN(CC(=O)O)CC1
> 100 µM

Same for O=c1[nH]nc(Cc2ccc(Cl)cc2)n1/N=C\c1ccc(/C=N/n2c(Cc3ccc(Cl)cc3)n[nH]c2=O)cc1
> 100 µM

Same for COc1ccc2c(c1)CCC1C2CC[C@]2(C)/C(=N/OC(=O)Cc3ccccc3)CCC12 (some centres undefined)
30.4 µM

Same for Cc1c2c(n(Cc3ccccn3)c1C)NN=C(C#N)S2(=O)=O
> 100 µM

Same for COc1cc2c3c(n(CCCNCCCNCCCn4c5c(c6ccccc6c4=O)C(=O)c4ccccc4-5)c(=O)c2cc1OC)-c1cc2c(cc1C3=O)OCO2
0.0113 µM

Same for CN(C)c1ccc(/C=C(\NC(=O)c2ccccc2)C(=O)NC(CCC(=O)O)C(=O)O)cc1 (centres undefined)
> 100 µM

Same for CC(=O)N[C@H]1CCCC[C@@H]1OC(C)=O
> 100 µM

Same for COc1cc([C@@H]2c3[nH]c4ccccc4c3C(Nc3ccc([N+](=O)[O-])cc3)[C@H]3COC(=O)N23)cc(OC)c1O (some centres undefined)
1.44 µM

Same for COP1(=O)Oc2ccccc2C(=O)C(C(F)(F)F)(C(F)(F)F)O1 (centres undefined)
> 100 µM

Same for CCCCn1c2c(n(CCCC)c1=S)-c1c(n(CCCC)c(=S)n1CCCC)SSSS2
> 93.6 µM

* * *

Tested on: OVCAR-5 ovarian
Experiment: NCI tumour cell line growth inhibition, 48 h
Value kind: TGI

• Cc1ccc(S(=O)(=O)OC2C(C3COC(C)(C)O3)OC3OC(C)(C)OC32)cc1 (stereo not drawn) = > 100 µM
• COc1ccc2c(c1)OC[C@@H]1c3cc4c(cc3O[C@H]21)OCO4 = > 100 µM

State the recorded TGI for this entry: O=[n+]1c2ccccc2n([O-])c2cc(Br)ccc21
> 100 µM

* * *

System: SNB-75 CNS
Assay: NCI tumour cell line growth inhibition, 48 h
Overview of recorded TGI for various compounds

Here's what some known entries look like.
* CCOC(=O)CCC(NC(=O)c1ccc(Nc2nc3ccccc3nc2-c2cccs2)cc1)C(=O)OCC (stereo not given) | > 100 µM
* Nc1ncnc2c1ncn2C1OC(CO)=CC1O (stereo not given) | > 37.5 µM
* N/N=C1\CCCc2c1no[n+]2[O-] | > 100 µM

Hello, I am looking for reported TGI with SNB-75 CNS for NCCC(O)(P(=O)(O)O)P(=O)(O)O . Could you help?
> 100 µM

Same for N#Cc1cc([N+](=O)[O-])ccc1NC(=O)C(=O)C(C(=O)/C=C/c1ccccc1)C1OC(=O)c2ccccc21 (stereo not given)
> 100 µM

Same for COc1ccc(N2C(=O)C3c4[nH]c5cccc(C)c5c4C4CCC(C(C)(C)C)CC4C3C2=O)cc1 (stereo not given)
> 10 µM

* * *

Tested on: SNB-75 CNS
Test: NCI tumour cell line growth inhibition, 48 h
Overview of recorded TGI for various molecules

Here's what some known entries look like.
• Cc1ccc(-c2csc(=Nc3c(C)n(C)n(-c4ccccc4)c3=O)n2CCO)cc1 = > 100 µM
• COc1cccc(/C=C2\CCCCCC2=O)c1 = > 100 µM

Kindly consider the entry below.
State the recorded TGI for this entry: COc1ccc(C(c2c(O)c3ccccc3n(C)c2=O)c2c(O)c3ccccc3n(C)c2=O)cc1
> 100 µM

* * *

Tested on: SK-MEL-2 melanoma
Assay: NCI tumour cell line growth inhibition, 48 h
Where a SMILES comes first, the peptide text is derived from it. [ ]: non-standard residue; d: D form. The star is where a group is joined. Octanoyl = CCCCCCCC(=O)*; Aib = CC(C)(N)C(=O)O; tBu = CC(C)(C)*
Overview of recorded TGI for various compounds

- CCCCCCCC(=O)NC(C)(C)C(=O)NC(COC(C)(C)C)C(=O)NC(CC(C)C)C(=O)NC(C)(C)C(=O)NC(COC(C)(C)C)C(=O)NC(COC(C)(C)C)C(=O)NC(CC(C)C)C(=O)NC(C)(C)C(=O)NC(COC(C)(C)C)C(=O)NC(C(=O)NC(CC(C)C)C(=O)OC)C(C)CC (configuration not stated) (Octanoyl-[Aib]S(tBu)L[Aib]S(tBu)S(tBu)L[Aib]S(tBu)IL-OMe; configuration not given here): 13.5 µM
- COc1ccc2c(c1)OC[C@@H]1c3cc4c(cc3O[C@H]21)OCO4: > 100 µM
- NCc1nnn(Cc2ccccc2)c1N: > 100 µM
- CC(C)(C)C(=O)C(C(c1ccccc1)N1CCOCC1)N1CCOCC1 (configuration not stated): > 100 µM
- COc1ccc(-c2nc(-c3nc4ccc(OC)cc4[nH]3)cc3c2[nH]c2ccccc23)cc1: 49.2 µM
- NC(=S)N/N=C1/C(=O)N(c2ccc(Cl)cc2Cl)C(=O)C(=O)C1c1nc2ccccc2s1 (configuration not stated): > 100 µM

State the recorded TGI for this entry: NCCC(O)(P(=O)(O)O)P(=O)(O)O
43.8 µM

* * *

Overview of recorded TGI for various compounds
System: NCI-H226 lung
Test: NCI tumour cell line growth inhibition, 48 h

• O=C(Nc1c(O)[nH]c(=S)[nH]c1=O)c1ccc2ccccc2n1 = > 100 µM
• CCN(CC)C(=O)COc1ccc(Br)cc1Br = > 100 µM
• Nc1ccn(C2CC(CO)C(O)C2O)c(=O)n1 (stereo not given) = > 57.7 µM
• Cc1ccc(C)c(-c2csc(Nc3ccc(C)c(C)c3)n2)c1 = > 100 µM

Kindly consider the entry below.
Hello, I am looking for reported TGI with NCI-H226 lung for CC(CO)C1=CC(C#CCOCc2ccccc2)N(C(=O)Oc2ccccc2)c2ccccc21 (stereo not given) . Could you help?
> 100 µM
